All values here come from ChEMBL document CHEMBL2321726.

- system_name: Neuraminidase (Vibrio cholerae, UniProt Q5IB64)
measured_property: IC50

Worked cases, answers included:
structure_smiles	system_name	measured_property	result
CC(=O)N[C@H]1[C@H](CNNCc2ccc(-c3ccccc3)cc2)OC(C(=O)O)=C[C@@H]1O	Neuraminidase (Vibrio cholerae, UniProt Q5IB64)	IC50	> 1000 µM
CC(=O)N[C@@H]1[C@@H](N=[N+]=[N-])C=C(C(=O)O)O[C@H]1CN(Cc1ccccc1)OCc1ccccc1	Neuraminidase (Vibrio cholerae, UniProt Q5IB64)	IC50	> 1000 µM
CC(=O)N[C@H]1[C@H](CNCc2ccccc2)OC(C(=O)O)=C[C@@H]1O	Neuraminidase (Vibrio cholerae, UniProt Q5IB64)	IC50	470 µM

IC50 for CC(=O)N[C@@H]1[C@@H](N=[N+]=[N-])C=C(C(=O)O)O[C@H]1CNc1ccccc1 is > 1000 µM

Form: compound = CC(=O)N[C@@H]1[C@@H](N=[N+]=[N-])C=C(C(=O)O)O[C@H]1CNNc1ccccc1 ; IC50 = > 1000 µM

The measured IC50 associated with CC(=O)N[C@H]1[C@H]([C@H](O)[C@H](O)CO)OC(C(=O)O)=C[C@@H]1N reads > 1000 µM
